- Experimental System: GPR6 receptor expressed in CHO-K1 cells (Homo sapiens)
- Construct: expressed in transfected cells
- Assay Info: In vitro inhibition of cAMP (EC50), cell-based HTRF cAMP assay
- Condition Set: inhibition of constitutive cAMP activity of GPR6 in CHO-K1 cells
A collection of molecules and their measured pEC50, in vitro inhibition of cAMP
Answer with a number only.

# count of solved cases: 6
Molecule | Value
COc1ncccc1C(=O)Nc1cc(C(=O)N(C)C)cnc1N1CCC(Oc2ccc(F)cc2F)CC1 | 7.2
Cc1ccc(F)c(C(=O)Nc2cc(C#N)cnc2N2CCC(Oc3ccc(F)cc3F)CC2)n1 | 7.3
COc1ncccc1C(=O)Nc1cc(C#N)ccc1N1CCC(C(OC)c2ccc(F)cc2)CC1 (centres unmarked) | 6.5
COc1cc(C(F)(F)F)ccc1C(=O)Nc1cc(C#N)ccc1N1CCC(Oc2ccc(F)cc2F)CC1 | 6.3
CCCCn1cccc(C(=O)Nc2cc(C#N)ccc2N2CCC(Oc3ccc(F)cc3F)CC2)c1=O | 6.2
COc1c(F)cccc1C(=O)Nc1cc(S(C)(=O)=O)ccc1N1CCC(Oc2ccc(F)cc2F)CC1 | 6.9

May I ask what pEC50, in vitro inhibition of cAMP has been recorded for `COc1nn(C)cc1C(=O)Nc1cc(C)cnc1N1CCC(Oc2ccc(F)cc2F)CC1` ?
7.0

May I ask what pEC50, in vitro inhibition of cAMP has been recorded for `Cc1ccc(NC(=O)c2cc(F)cnc2O)c(N2CCN(Cc3ccc(F)cc3)CC2)n1` ?
5.9

---

- Experimental System: GPR6 receptor expressed in CHO-K1 cells (Homo sapiens, UniProt P46095)
- Construct: expressed in transfected cells
- Sequence (P46095 whole entry): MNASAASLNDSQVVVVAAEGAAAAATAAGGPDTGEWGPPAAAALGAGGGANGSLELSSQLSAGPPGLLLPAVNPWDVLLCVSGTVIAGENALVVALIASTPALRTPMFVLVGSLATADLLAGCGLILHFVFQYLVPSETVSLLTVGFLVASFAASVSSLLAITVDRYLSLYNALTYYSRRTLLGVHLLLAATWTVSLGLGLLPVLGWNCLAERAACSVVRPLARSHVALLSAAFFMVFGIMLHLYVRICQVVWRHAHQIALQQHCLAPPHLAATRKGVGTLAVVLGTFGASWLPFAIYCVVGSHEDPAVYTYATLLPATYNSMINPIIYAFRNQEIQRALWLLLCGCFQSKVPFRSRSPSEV
- Assay Info: In vitro inhibition of cAMP (EC50), cell-based HTRF cAMP assay
- Condition Set: inhibition of constitutive cAMP activity of GPR6 in CHO-K1 cells
Give rule met when the value for pEC50, in vitro inhibition of cAMP is at least 7. Give rule not met when it is less.

Completed entries (count: 8):
Smiles Code | Answer Label
COc1ncccc1C(=O)Nc1cc(C#N)ccc1N1CCN(Cc2c(F)cccc2F)CC1 | rule not met
Cc1ocnc1C(=O)Nc1cc(C#N)ccc1N1CCC(Oc2ccc(F)cc2F)CC1 | rule not met
COCc1cnc(N2CCC(Oc3ccc(F)cc3F)CC2)c(NC(=O)c2cccnc2OC)c1 | rule met
Cn1cccc(C(=O)Nc2cc(C#N)ccc2N2CCC([C@H](F)c3ccc(F)cc3F)CC2)c1=O | rule not met
Cc1ccc(NC(=O)c2cnn(C)c2O)c(N2CCN(Cc3ccc(F)cc3)CC2)n1 | rule not met
COc1ccncc1C(=O)Nc1cc(C)cnc1N1CCC(Oc2ccc(F)cc2F)CC1 | rule met
COc1ccc(C(C)(C)C)cc1C(=O)Nc1cc(C#N)ccc1N1CCC(Oc2ccc(F)cc2F)CC1 | rule not met
N#Cc1ccc(N2CCC(Oc3ccc(F)cc3F)CC2)c(NC(=O)c2ccsn2)c1 | rule not met

Textbook exercise: given the entry `Cc1nc(C(=O)Nc2cc(C#N)ccc2N2CCC(Oc3ccc(F)cc3F)CC2)c(C)o1` , state whether its pEC50, in vitro inhibition of cAMP is greater than or equal to 7.
rule not met

Textbook exercise: given the entry `COc1c(C(=O)Nc2cc(C#N)ccc2N2CCC(Oc3ccc(F)cc3F)CC2)nnn1Cc1ccccc1` , state whether its pEC50, in vitro inhibition of cAMP is greater than or equal to 7.
rule not met

Textbook exercise: given the entry `COc1ccc(F)cc1C(=O)Nc1cc(C#N)ccc1N1CCC(Oc2ccc(F)cc2F)CC1` , state whether its pEC50, in vitro inhibition of cAMP is greater than or equal to 7.
rule met

Textbook exercise: given the entry `COc1ccc(CN2CCN(c3ncc(C#N)cc3NC(=O)c3cn(C)nc3OC)CC2)cc1` , state whether its pEC50, in vitro inhibition of cAMP is greater than or equal to 7.
rule not met

Textbook exercise: given the entry `COc1ccc(Cl)cc1C(=O)Nc1cc(C#N)ccc1N1CCC(Oc2ccc(F)cc2F)CC1` , state whether its pEC50, in vitro inhibition of cAMP is greater than or equal to 7.
rule not met

Values were extracted from patent US11426397B2.
